Quick list: IC50 per entry.
- measuredTarget: Phosphatidylinositol 4,5-bisphosphate 3-kinase catalytic subunit gamma isoform (Homo sapiens, UniProt P48736)
- Sequence (P48736 whole entry, looked up, canonical isoform): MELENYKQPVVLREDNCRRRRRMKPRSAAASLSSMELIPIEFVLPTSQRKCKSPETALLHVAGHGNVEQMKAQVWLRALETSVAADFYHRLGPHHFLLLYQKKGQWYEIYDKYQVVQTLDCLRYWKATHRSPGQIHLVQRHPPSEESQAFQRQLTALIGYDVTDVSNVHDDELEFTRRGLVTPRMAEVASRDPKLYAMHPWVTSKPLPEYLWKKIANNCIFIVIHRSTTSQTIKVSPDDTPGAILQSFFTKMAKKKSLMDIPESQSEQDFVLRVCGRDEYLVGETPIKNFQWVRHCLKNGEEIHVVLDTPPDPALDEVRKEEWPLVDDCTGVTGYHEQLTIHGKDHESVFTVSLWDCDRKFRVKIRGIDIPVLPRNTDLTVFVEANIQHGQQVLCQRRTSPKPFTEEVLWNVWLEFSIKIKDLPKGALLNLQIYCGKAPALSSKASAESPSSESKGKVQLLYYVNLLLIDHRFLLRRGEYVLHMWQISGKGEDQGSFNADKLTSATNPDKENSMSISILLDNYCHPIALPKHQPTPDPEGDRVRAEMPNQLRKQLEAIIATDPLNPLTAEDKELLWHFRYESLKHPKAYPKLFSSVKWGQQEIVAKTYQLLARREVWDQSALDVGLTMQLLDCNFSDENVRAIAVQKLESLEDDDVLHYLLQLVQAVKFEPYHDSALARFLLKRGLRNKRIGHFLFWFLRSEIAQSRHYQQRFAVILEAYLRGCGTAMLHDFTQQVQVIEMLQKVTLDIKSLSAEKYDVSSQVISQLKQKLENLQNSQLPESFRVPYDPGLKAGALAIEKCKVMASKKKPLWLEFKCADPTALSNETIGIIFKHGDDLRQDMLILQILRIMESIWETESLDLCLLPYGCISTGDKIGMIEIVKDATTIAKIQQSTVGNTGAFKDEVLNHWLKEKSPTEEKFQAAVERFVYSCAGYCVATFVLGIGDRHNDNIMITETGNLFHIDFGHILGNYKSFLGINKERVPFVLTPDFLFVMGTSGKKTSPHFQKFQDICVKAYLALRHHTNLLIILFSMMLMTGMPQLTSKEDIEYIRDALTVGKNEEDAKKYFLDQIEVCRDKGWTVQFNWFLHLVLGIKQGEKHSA
- assayOverview: Inhibition Assays of p110α/p85α, p110β/p85α, p110δ/p85α, and p110γ

Here are 2 molecules together with their reported answers.
# molecule, IC50
data = [
    ("C[C@H](Nc1ncnc2[nH]cnc12)c1cc2cccc(Cl)c2c(=O)n1-c1cccc(F)c1", "< 100 nM"),
    ("Cc1csc2ncnc(N[C@@H](C)c3cc4cccc(Cl)c4c(=O)n3-c3ccccc3)c12", "< 100 nM"),
]

Reported IC50 for C[C@H](Nc1ncnc2ccsc12)c1cc2cccc(Cl)c2c(=O)n1-c1ccccc1 : what is it?
< 100 nM

Another molecule to look at: Cc1cccc2cc(C(C)Nc3ncnc4[nH]cnc34)n(-c3ccccc3F)c(=O)c12 (configuration not stated)
< 100 nM

Another molecule to look at: C[C@H](Nc1ncnc2sccc12)c1cc2cccc(Cl)c2c(=O)n1-c1ccccc1
< 100 nM

Another molecule to look at: C[C@H](Nc1ncnc2[nH]cnc12)c1cc2cccc(Cl)c2c(=O)n1-c1ccc(F)cc1
< 100 nM

Another molecule to look at: C[C@H](Nc1nc(N)ncc1C(F)(F)F)c1cc2cccc(Cl)c2c(=O)n1-c1ccccc1
< 100 nM

This collection of values is drawn from BindingDB's records for patent US20250170122.
